Reference for the values: ChEMBL document CHEMBL2218924

- system.tested: Muscle, skeletal receptor tyrosine-protein kinase (Homo sapiens) (UniProt O15146)
- Sequence (O15146 whole entry): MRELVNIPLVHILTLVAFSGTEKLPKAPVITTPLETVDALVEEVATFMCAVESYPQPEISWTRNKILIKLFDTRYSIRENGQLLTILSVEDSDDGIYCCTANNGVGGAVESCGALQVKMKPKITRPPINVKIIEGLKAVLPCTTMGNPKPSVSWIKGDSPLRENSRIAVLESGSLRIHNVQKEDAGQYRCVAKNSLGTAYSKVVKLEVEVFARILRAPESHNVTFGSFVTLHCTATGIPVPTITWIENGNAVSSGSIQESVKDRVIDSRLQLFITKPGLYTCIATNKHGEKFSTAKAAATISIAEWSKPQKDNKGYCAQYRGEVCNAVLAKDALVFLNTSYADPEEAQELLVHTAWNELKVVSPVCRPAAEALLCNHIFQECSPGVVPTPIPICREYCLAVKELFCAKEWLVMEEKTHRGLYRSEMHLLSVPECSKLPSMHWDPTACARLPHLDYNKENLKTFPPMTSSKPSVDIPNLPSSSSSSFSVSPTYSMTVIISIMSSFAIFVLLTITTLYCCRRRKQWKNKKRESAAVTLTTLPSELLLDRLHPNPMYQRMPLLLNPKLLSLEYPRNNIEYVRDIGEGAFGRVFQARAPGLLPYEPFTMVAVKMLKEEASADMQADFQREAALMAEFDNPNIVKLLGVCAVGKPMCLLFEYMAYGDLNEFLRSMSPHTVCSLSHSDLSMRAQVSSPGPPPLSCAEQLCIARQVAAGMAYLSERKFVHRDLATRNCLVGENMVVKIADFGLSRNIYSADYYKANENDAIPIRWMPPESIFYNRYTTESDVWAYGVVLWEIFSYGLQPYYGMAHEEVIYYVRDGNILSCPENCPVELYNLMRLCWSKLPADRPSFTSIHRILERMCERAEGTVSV
- test.parameters: at 10 µM
measured.property: residual activity (%)

>>> recorded_measurement("CC(C)N(CCC(=O)c1ccc2ccccc2c1)Cc1ccccc1")
79
>>> recorded_measurement("N#Cc1c(NC(=O)c2cccc3ccccc23)sc2c1CCCC2")
78
>>> recorded_measurement("NCCNc1ncc(C(N)=O)c(Nc2cccc(C(F)(F)F)c2)n1")
75
>>> recorded_measurement("Cc1cc(C)c(/C=C2\\C(=O)Nc3ccccc32)[nH]1")
12
>>> recorded_measurement("O=S(=O)(NCCNC/C=C/c1ccc(Br)cc1)c1cccc2cnccc12")
76
>>> recorded_measurement("CCCCc1c(-c2ccc(OC)cc2)[nH]c2nccnc12")
87
>>> recorded_measurement("CC(C)(C)n1nc(Cc2cccc3ccccc23)c2c(N)ncnc21")
76

---

- system.tested: CDK6/cyclin D3 (Homo sapiens) (UniProt P30281+Q00534)
- test.parameters: at 1 µM
- Description: Millipore: Percentage of residual kinase activity of CDK6 at 1uM relative to control. Control inhibitor: Phosphoric acid* at 0.3uM. Buffer: 8 mM MOPS pH 7.0, 0.2 mM EDTA
// F strictly below 80% in residual activity; T otherwise

>>> discrete_label("O=C1Cc2c([nH]c3ccc([N+](=O)[O-])cc23)-c2ccccc2N1")
"F"
>>> discrete_label("CCCCc1c(-c2ccc(O)cc2)[nH]c2nccnc12")
"T"
>>> discrete_label("CCCCc1c(-c2ccc(OC)cc2)[nH]c2nccnc12")
"T"
>>> discrete_label("c1ccc(-c2cnc(Nc3ccc(OCCN4CCCC4)cc3)s2)cc1")
"F"
>>> discrete_label("O=C1NC(=O)c2c1c1c3ccccc3[nH]c1n1cncc21")
"F"

---

- system.tested: Tyrosine-protein kinase Yes (Homo sapiens) (UniProt P07947)
- Sequence (P07947 2-543 limits assumed): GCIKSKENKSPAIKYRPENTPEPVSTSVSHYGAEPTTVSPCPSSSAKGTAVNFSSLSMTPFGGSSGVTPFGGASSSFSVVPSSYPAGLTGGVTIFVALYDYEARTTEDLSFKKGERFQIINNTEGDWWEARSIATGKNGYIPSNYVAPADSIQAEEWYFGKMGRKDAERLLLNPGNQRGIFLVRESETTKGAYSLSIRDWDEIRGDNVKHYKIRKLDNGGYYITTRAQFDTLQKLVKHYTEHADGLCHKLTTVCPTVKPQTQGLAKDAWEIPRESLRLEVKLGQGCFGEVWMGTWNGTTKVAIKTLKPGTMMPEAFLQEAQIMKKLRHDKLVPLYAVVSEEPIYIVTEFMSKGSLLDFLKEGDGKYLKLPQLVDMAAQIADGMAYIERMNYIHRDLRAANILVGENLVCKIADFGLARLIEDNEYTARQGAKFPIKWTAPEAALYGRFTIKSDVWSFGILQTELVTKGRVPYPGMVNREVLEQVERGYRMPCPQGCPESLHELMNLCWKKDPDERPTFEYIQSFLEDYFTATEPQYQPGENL
- test.parameters: at 10 µM
measured.property: residual activity (%)

>>> recorded_measurement("Cn1c2ccccc2c2c3c(c4c5ccccc5n(CCC#N)c4c21)CNC3=O")
61
>>> recorded_measurement("CCCCc1c(-c2ccc(OC)cc2)[nH]c2nccnc12")
69
>>> recorded_measurement("O=c1cc(N2CCOCC2)oc2c1ccc1ccccc12")
95
>>> recorded_measurement("COc1cc2nccc(Oc3ccc(NC(=S)NC(=O)c4ccccc4C)cc3)c2cc1OC")
3
>>> recorded_measurement("O=C(O)/C=C/c1cc(Br)c(Br)c(Br)c1Br")
96
>>> recorded_measurement("CC(C)(C)n1nc(Cc2cccc3ccccc23)c2c(N)ncnc21")
0

---

- system.tested: Serine/threonine-protein kinase ULK3 (Homo sapiens) (UniProt Q6PHR2)
- Sequence (whole entry): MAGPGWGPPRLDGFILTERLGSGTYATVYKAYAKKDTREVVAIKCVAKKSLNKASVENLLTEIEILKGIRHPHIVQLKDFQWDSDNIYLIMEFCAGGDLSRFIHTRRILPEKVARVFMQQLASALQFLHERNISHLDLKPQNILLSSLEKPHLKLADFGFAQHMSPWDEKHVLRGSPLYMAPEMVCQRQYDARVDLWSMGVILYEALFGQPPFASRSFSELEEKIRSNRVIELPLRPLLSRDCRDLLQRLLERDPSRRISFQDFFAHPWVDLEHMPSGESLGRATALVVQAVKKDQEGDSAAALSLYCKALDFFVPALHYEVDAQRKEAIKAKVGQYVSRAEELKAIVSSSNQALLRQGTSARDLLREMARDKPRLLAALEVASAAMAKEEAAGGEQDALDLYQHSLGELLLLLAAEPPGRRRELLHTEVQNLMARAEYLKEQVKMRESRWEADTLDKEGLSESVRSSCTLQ
- test.parameters: at 10 µM
Rule for this label: t means residual activity is less than 20%; f means residual activity is at least 20%.

>>> discrete_label("COc1cc2nccc(Oc3ccc(NC(=S)NC(=O)c4ccccc4C)cc3)c2cc1OC")
"f"
>>> discrete_label("O=C1Cc2c([nH]c3ccc([N+](=O)[O-])cc23)-c2ccccc2N1")
"f"
>>> discrete_label("CC(C)c1nn(-c2c(Cl)cccc2Cl)c2nc(Cc3ccc(OCCO)cc3)[nH]c(=O)c12")
"f"
>>> discrete_label("CC(C)[C@H](CO)Nc1nc(Nc2cc(N)cc(Cl)c2)c2ncn(C(C)C)c2n1")
"t"
>>> discrete_label("Cn1c2ccccc2c2c3c(c4c5ccccc5n(CCC#N)c4c21)CNC3=O")
"t"
>>> discrete_label("NCCNc1ncc(C(N)=O)c(Nc2cccc(C(F)(F)F)c2)n1")
"f"
